Form field: kon (one value per entry).
assay system: T1, human alpha CGRP (SEQ ID NO: 80) (human, not fully specified)
T1 construct: also called human αCGRP; hαCGRP
T1 peptide: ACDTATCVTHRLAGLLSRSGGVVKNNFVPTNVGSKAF
protocol: SPR, 37 C, mutein captured, CGRP analyte
The reply should read as a number followed by its unit.

// below: answered binders
lipocalin mutein SEQ ID NO: 13 (designed binder, biotinylated by NHS chemistry for capture in SPR) QDSTSDLIPAPPLSKVPLQQNFQDNQFHGKWYVVGRAGNEELREDKDPQKMEATIYELKEDKSYNVTDVGFSEKKCIYVIHTFVPGSQPGEFTLGNIKSYPGVTSALVRVVSTNYNQHAMVFFKVVKQNRELFEITLYGRTKELTSELKENFIRFSKSLGLPENHIVFPVPIDQCIDGSAWSHPQFEK :: 5.82e+06 M⁻¹ s⁻¹
lipocalin mutein SEQ ID NO: 21 (designed binder, biotinylated by NHS chemistry for capture in SPR) QDSTSDLIPAPPLSKVPLQQNFQDNQFHGKWYVVGRAGNDALREDKDPEKMEATIYELKEDKSYNVTDVGFVQKKCMYVIHTFVPGSQPGEFTLGNIKSYPGVTSALIRVVNTNYNQHAMVFVKLVKQNRELFEITLYGRTKELTSELKENFIRFSKSLGLPENHIVFPVPIDQCIDGSAWSHPQFEK :: 1.21e+06 M⁻¹ s⁻¹
lipocalin mutein SEQ ID NO: 26 (designed binder, biotinylated by NHS chemistry for capture in SPR) QDSTSDLIPAPPLSKVPLQQNFQDNQFHGKWYVVGWAGNTLLREDKDPIKMQAKIYELKEDRSYNVTWVYFADKKCRYHIETFVPGSQPGEFTLGTIKSHPGETPILVRVVSTNYNQHAMVFFKGVNQNREIFEIILYGRTKELTNELKENFIRFSKSLGLPENHIVFPVPIDQCIDGSAWSHPQFEK :: 1.5e+06 M⁻¹ s⁻¹
lipocalin mutein SEQ ID NO: 22 (designed binder, biotinylated by NHS chemistry for capture in SPR) QDSTSDLIPAPPLSKVPLQQNFQDNQFHGKWYVVGRAGNDALREDKDPEKMEATIYELKEDKSYNVTDVGLVQKKCMYVIHTFVPGGQPGEFTLGNIKSYPGVTSALVRVVSTNYNQHAMVFVKLVKQNRELFEITLYGRTKELTSELKENFIRFSKSLGLPENHIVFPVPIDQCIDGSAWSHPQFEK :: 1.76e+06 M⁻¹ s⁻¹
lipocalin mutein SEQ ID NO: 28 (designed binder, biotinylated by NHS chemistry for capture in SPR) QDSTSDLIPAPPLSKVPLQQNFQDNQFHGKWYVVGWAGNTLLREDKDPIKMQAIIYELKEDRSYNVTWVYFSEKKCNYHIETFVPGSQPGEFTLGTIKSYPGETPILVRVMSTNYNQHAMVFFKGVNQNREIFEIILYGRTKELTNELKENFIRFSKSLGLPENHIVFPVPIDQCIDGSAWSHPQFEK :: 1.59e+06 M⁻¹ s⁻¹

Per the record, lipocalin mutein SEQ ID NO: 12 (designed binder, biotinylated by NHS chemistry for capture in SPR) QDSTSDLIPAPPLSKVPLQQNFQDNQFHGKWYVVGWAGNTLLREDKDPPKMQATIYELKEDRSYNVTWVYFSEKKCNYHIETSVPGSQPGEFTLGTIQSHPGETPILVRVVSTNYNQHAMVFFKGMGQNREIFEITLYGRTKELTSELKENFIRFSKSLGLPENHIVFPVPIDQCIDGSAWSHPQFEK has kon of 1.08e+06 M⁻¹ s⁻¹

The binder listed as lipocalin mutein SEQ ID NO: 19 (designed binder, biotinylated by NHS chemistry for capture in SPR) QDSTSDLIPAPPLSKVPLQQNFQDNQFHGKWYVVGRAGNDTLREDKDPEKMEATIYELKEDKSYNVTDVGLVQKKCMYVIHTFVPGSQPGEFTLGNIKSYPGVTSALVRVVSTNYNQHAMVFVKLVKQSRELFEITLYGRTKELTSELKENFIRFSKSLGLPENHIVFPVPIDQCIDGSAWSHPQFEK shows kon equal to 2.26e+06 M⁻¹ s⁻¹

Data provenance: patent US20190338002A1
